# maps each entry to its pIC50
target: V600E full-length B-Raf (Homo sapiens, UniProt P15056, V600E); construct: 1 μM FSBA-MEK and 20 nM V600E full-length B-Raf; made in house; host or cells: sf9 insect cells (baculovirus); experiment: B-Raf IC50 Assay (B-RAF V600E inhibition assay, Example A); type: biochemical; details: incorporation of radio labeled phosphate from [γ-33P]ATP into FSBA-modified wild-type MEK; 4 μM ATP, 20 nM V600E full-length B-Raf, 60-minute incubation, 22° C.; read-out: BRAF V600E IC50
Sequence (P15056 whole entry V600E): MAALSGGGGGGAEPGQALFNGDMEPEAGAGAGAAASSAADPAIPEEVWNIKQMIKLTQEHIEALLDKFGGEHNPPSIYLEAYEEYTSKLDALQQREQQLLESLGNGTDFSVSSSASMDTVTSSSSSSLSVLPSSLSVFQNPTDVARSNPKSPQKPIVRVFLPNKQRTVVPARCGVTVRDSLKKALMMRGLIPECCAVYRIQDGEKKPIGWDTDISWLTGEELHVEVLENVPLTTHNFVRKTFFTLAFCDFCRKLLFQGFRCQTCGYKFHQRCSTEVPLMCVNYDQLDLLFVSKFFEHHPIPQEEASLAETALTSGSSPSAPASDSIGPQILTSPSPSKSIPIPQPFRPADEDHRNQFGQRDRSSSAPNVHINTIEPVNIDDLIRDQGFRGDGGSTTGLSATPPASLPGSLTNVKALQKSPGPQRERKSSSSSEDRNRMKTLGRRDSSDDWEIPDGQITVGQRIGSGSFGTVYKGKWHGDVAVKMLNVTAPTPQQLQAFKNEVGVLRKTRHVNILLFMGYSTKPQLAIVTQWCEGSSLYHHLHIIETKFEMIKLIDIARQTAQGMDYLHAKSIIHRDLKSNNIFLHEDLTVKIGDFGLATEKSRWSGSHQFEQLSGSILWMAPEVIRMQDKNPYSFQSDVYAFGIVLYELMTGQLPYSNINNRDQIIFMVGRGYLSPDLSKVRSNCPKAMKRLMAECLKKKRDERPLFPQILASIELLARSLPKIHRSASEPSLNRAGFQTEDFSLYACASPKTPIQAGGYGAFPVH
pIC50: −log10 of the molar value.
measured.parameter: pIC50

| compound.string | measured.value |
| --- | --- |
| CCCS(=O)(=O)Nc1cccc(NC(=O)c2nsc3c(N)ncnc23)c1C#N | 9.42 |
| Cc1ncnc2c(C(=O)Nc3c(Cl)ccc(NS(=O)(=O)CCCF)c3Cl)csc12 | 8.95 |
| CCCS(=O)(=O)Nc1ccc(F)c(NC(=O)c2csc3c(C)ncnc23)c1F | 7.07 |
| CCCS(=O)(=O)Nc1ccc(F)c(NC(=O)c2csc3c(NC4CCC4)ncnc23)c1F | 7.34 |

====

# maps each entry to its IC50
target: V600E full-length B-Raf (Homo sapiens, UniProt P15056, V600E); construct: 1 μM FSBA-MEK and 20 nM V600E full-length B-Raf; made in house; host or cells: sf9 insect cells (baculovirus); assay: B-Raf IC50 Assay (B-RAF V600E inhibition assay, Example A); type: biochemical; conditions: incorporation of radio labeled phosphate from [γ-33P]ATP into FSBA-modified wild-type MEK; 4 μM ATP, 20 nM V600E full-length B-Raf, 60-minute incubation, 22° C.; read-out: BRAF V600E IC50

| compound | IC50, nM |
| --- | --- |
| CCCS(=O)(=O)Nc1ccc(Cl)c(NC(=O)c2csc3c(NC#N)ncnc23)c1Cl | 14 |
| CCCS(=O)(=O)Nc1ccc(F)c(NC(=O)c2csc3c(NC4CC4)ncnc23)c1Cl | 1.9 |
| CCCS(=O)(=O)Nc1ccc(Cl)c(NC(=O)c2csc3c(N)ncnc23)c1Cl | 0.1 |
| Nc1ncnc2c(C(=O)Nc3c(F)ccc(NS(=O)(=O)CCCF)c3F)csc12 | 0.6 |
| CCCS(=O)(=O)Nc1ccc(Cl)c(NC(=O)c2csc3c(NC4CCC4)ncnc23)c1Cl | 2.4 |
| CCCS(=O)(=O)Nc1ccc(Cl)c(NC(=O)c2csc3c(NC4COC4)ncnc23)c1Cl | 1.8 |
| CCCC(C)Nc1ncnc2c(C(=O)Nc3c(F)ccc(NS(=O)(=O)CCC)c3F)csc12 (centres unmarked) | 221 |
| CCCS(=O)(=O)Nc1ccc(F)c(NC(=O)c2csc3c(NC4CCCC4)ncnc23)c1F | 416 |

====

biological target: V600E full-length B-Raf (Homo sapiens, UniProt P15056, V600E); construct: 1 μM FSBA-MEK and 20 nM V600E full-length B-Raf; made in house; host or cells: sf9 insect cells (baculovirus); assay: B-Raf IC50 Assay (B-RAF V600E inhibition assay, Example A); assay type: biochemical; details: incorporation of radio labeled phosphate from [γ-33P]ATP into FSBA-modified wild-type MEK; 4 μM ATP, 20 nM V600E full-length B-Raf, 60-minute incubation, 22° C.; read-out: BRAF V600E IC50
pIC50: −log10 of the molar value.
# maps each entry to its pIC50
measured.parameter: pIC50

| molecule | target | measured.parameter | measured.value |
| --- | --- | --- | --- |
| CCCS(=O)(=O)Nc1ccc(F)c(NC(=O)c2csc3c(NCCO)ncnc23)c1F [Example 59] | V600E full-length B-Raf (Homo sapiens, UniProt P15056, V600E) | pIC50 | 7.24 |
| CCCS(=O)(=O)Nc1ccc(Cl)c(NC(=O)c2csc3c(NC4CCCCC4)ncnc23)c1Cl [Example 81] | V600E full-length B-Raf (Homo sapiens, UniProt P15056, V600E) | pIC50 | 6.96 |
| CCCS(=O)(=O)Nc1cc(F)cc(NC(=O)c2csc3c(N)ncnc23)c1F [Example 20] | V600E full-length B-Raf (Homo sapiens, UniProt P15056, V600E) | pIC50 | 8.24 |
| CCCS(=O)(=O)Nc1ccc(F)c(NC(=O)c2csc3c(Nc4ccccc4)ncnc23)c1F [Example 63] | V600E full-length B-Raf (Homo sapiens, UniProt P15056, V600E) | pIC50 | 7.45 |

====

target: V600E full-length B-Raf (Homo sapiens, UniProt P15056, V600E); construct: 1 μM FSBA-MEK and 20 nM V600E full-length B-Raf; made in house; host or cells: sf9 insect cells (baculovirus); assay: B-Raf IC50 Assay (B-RAF V600E inhibition assay, Example A); assay type: biochemical; details: B-Raf V600E assay of Example A: less than 100 nM; read-out: IC50

| molecule | IC50 |
| --- | --- |
| CCCS(=O)(=O)Nc1ccc(F)c(NC(=O)c2scc3c(N)ncnc23)c1F | < 100 nM |
| CCCS(=O)(=O)Nc1ccc(Cl)c(NC(=O)c2csc3c(NOC)ncnc23)c1Cl | < 100 nM |
| CC(C)CS(=O)(=O)Nc1ccc(F)c(NC(=O)c2csc3c(N)ncnc23)c1Cl | < 100 nM |
| CC(C)CS(=O)(=O)Nc1ccc(F)c(NC(=O)c2csc3c(N)ncnc23)c1F | < 100 nM |
| CCS(=O)(=O)Nc1ccc(F)c(NC(=O)c2csc3c(N)ncnc23)c1F | < 100 nM |
| CCCS(=O)(=O)Nc1ccc(F)c(NC(=O)c2csc3c(C)ncnc23)c1F | < 100 nM |
| CCCS(=O)(=O)Nc1ccc(Cl)c(NC(=O)c2csc3c(NC4CCOCC4)ncnc23)c1Cl | < 100 nM |
| Nc1ncnc2c(C(=O)Nc3c(F)ccc(NS(=O)(=O)CC4CC4)c3F)csc12 | < 100 nM |
| CCCS(=O)(=O)Nc1cc(F)cc(NC(=O)c2csc3c(N)ncnc23)c1F | < 100 nM |
| CCCS(=O)(=O)Nc1cc(F)c(F)c(NC(=O)c2csc3c(NC(C)C)ncnc23)c1F | < 100 nM |
| O=C(Nc1c(F)ccc(NS(=O)(=O)CCCF)c1F)c1csc2c(NC3CC3)ncnc12 | < 100 nM |
| CCCS(=O)(=O)Nc1cc(F)c(F)c(NC(=O)c2csc3c(NC)ncnc23)c1F | < 100 nM |
| Nc1ncnc2c(C(=O)Nc3c(Cl)ccc(NS(=O)(=O)CCCF)c3Cl)csc12 | < 100 nM |
| CN(C)S(=O)(=O)Nc1ccc(F)c(NC(=O)c2csc3c(N)ncnc23)c1F | < 100 nM |
| CCCS(=O)(=O)Nc1ccc(F)c(NC(=O)c2csc3c(Nc4cnn(C)c4)ncnc23)c1F | < 100 nM |
| CCCS(=O)(=O)Nc1cc(F)c(F)c(NC(=O)c2csc3c(NN4CCOCC4)ncnc23)c1F | < 100 nM |
| CCCS(=O)(=O)Nc1ccc(F)c(NC(=O)c2cn(C)c3c(N)ncnc23)c1F | < 100 nM |
| CCCS(=O)(=O)Nc1ccc(F)c(NC(=O)c2csc3c(NCCF)ncnc23)c1F | < 100 nM |
| O=C(Nc1c(Cl)ccc(NS(=O)(=O)CCCF)c1F)c1nsc2cncnc12 | < 100 nM |
| CCCS(=O)(=O)Nc1ccc(Cl)c(NC(=O)c2csc3c(NC4CCOC4)ncnc23)c1Cl (stereo not shown) | < 100 nM |
| Nc1ncnc2c(C(=O)Nc3c(F)ccc(NS(=O)(=O)c4ccco4)c3F)csc12 | < 100 nM |
| Nc1ncnc2c(C(=O)Nc3c(F)ccc(NS(=O)(=O)CCCF)c3F)nsc12 | < 100 nM |
| CCCS(=O)(=O)Nc1ccc(F)c(NC(=O)c2ccc3c(N)ncnn23)c1F | < 100 nM |
| Nc1ncnc2c(C(=O)Nc3c(F)ccc(NS(=O)(=O)CCCF)c3F)csc12 | < 100 nM |
| CCCS(=O)(=O)Nc1ccc(F)c(NC(=O)c2csc3c(C(F)F)ncnc23)c1F | < 100 nM |

====

# maps each entry to its log10(IC50)
target: V600E full-length B-Raf (Homo sapiens, UniProt P15056, V600E); construct: 1 μM FSBA-MEK and 20 nM V600E full-length B-Raf; made in house; host or cells: sf9 insect cells (baculovirus); test: B-Raf IC50 Assay (B-RAF V600E inhibition assay, Example A); format: biochemical; conditions: incorporation of radio labeled phosphate from [γ-33P]ATP into FSBA-modified wild-type MEK; 4 μM ATP, 20 nM V600E full-length B-Raf, 60-minute incubation, 22° C.; read-out: BRAF V600E IC50
measured.parameter: log10(IC50) (log10 of the value in nM)

| compound.string | measured.parameter | measured.value |
| --- | --- | --- |
| CCCS(=O)(=O)Nc1ccc(F)c(NC(=O)c2csc3c(NC)ncnc23)c1F | log10(IC50) | 1.70 |
| CCCS(=O)(=O)Nc1ccc(Cl)c(NC(=O)c2csc3c(NC4CCOCC4)ncnc23)c1Cl | log10(IC50) | 1.89 |
| Nc1ncnc2c(C(=O)Nc3c(F)ccc(NS(=O)(=O)c4ccco4)c3F)csc12 | log10(IC50) | -0.66 |
| CC(C)CS(=O)(=O)Nc1ccc(F)c(NC(=O)c2csc3c(N)ncnc23)c1F | log10(IC50) | 0.41 |
| CCCS(=O)(=O)Nc1ccc(F)c(NC(=O)c2csc3cncnc23)c1F | log10(IC50) | 2.46 |
| O=C(Nc1c(Cl)ccc(NS(=O)(=O)CCCF)c1Cl)c1csc2c(NC3CC3)ncnc12 | log10(IC50) | -0.89 |
| O=C(Nc1c(Cl)ccc(NS(=O)(=O)CCCF)c1Cl)c1csc2cncnc12 | log10(IC50) | 0.43 |
| CCCS(=O)(=O)Nc1ccc(F)c(NC(=O)c2ccc3c(N)ncnn23)c1F | log10(IC50) | 0.40 |
